molecular target: Solute carrier family 2, facilitated glucose transporter member 4 (Rattus norvegicus); experiment: Enhancement of GLUT4 translocation in rat L6 cells expressing pIRAP-mOrange cDNAs at 10 uM after 10 mins by fluorescence assay relative to control; format: cell-based
So basically, if fold change (FC) comes in under 0.7 it's fulfilled, and if it's 0.7 or more it's not fulfilled.

Solved entries:
>  <COMPOUND>
C[C@H]1[C@H](C)CC[C@]2(C(=O)O)CC[C@]3(C)C(=CC[C@@H]4[C@@]5(C)C[C@@H](O)[C@H](O)C(C)(C)[C@@H]5CC[C@]43C)[C@H]12

>  <LABEL VALUE>
not fulfilled

$$$$
>  <COMPOUND>
C=C(C)[C@@H]1CC[C@]2(C(=O)O)CC[C@]3(C)[C@H](CC[C@@H]4[C@@]5(C)CC[C@H](O)C(C)(C)[C@@H]5CC[C@]43C)[C@@H]12

>  <LABEL VALUE>
not fulfilled

$$$$
>  <COMPOUND>
C[C@H]1[C@H](C)CC[C@]2(C(=O)O)CC[C@]3(C)C(=CC[C@@H]4[C@@]5(C)C[C@@H](O)[C@H](O)[C@@](C)(CO)[C@@H]5CC[C@]43C)[C@H]12

>  <LABEL VALUE>
fulfilled

$$$$

Q: Item CC(C)CC1C2=C(Oc3cc(O)c(C(=O)CCc4ccccc4)c(O)c31)C(C)(C)C(=O)C(C)(C)C2=O (racemic) : fold change (FC) beneath 0.7, strictly?
A: fulfilled
